- Test system: T47D
- Assay details: NCI tumour cell line growth inhibition, 48 h
Active and inactive are the calls of the source. Rule as the data show it: active = GI50 up to about 1.1 µM and inactive = higher.
Choose the fitting class; nothing outside true = active, false = inactive is accepted.

// known answers, use as guide
{"Molecule": "COc1cc(/C=C\\C(=O)O)ccc1OCc1ccccc1", "Discrete label": "false"}
{"Molecule": "Cc1c(N2C(=O)/C(=C/c3ccc(Cl)cc3)N=C2c2ccccc2)c(=O)n(-c2ccccc2)n1C", "Discrete label": "false"}
{"Molecule": "CC(C)(C)OC(=O)NC(Cc1ccccc1)C(=O)N[C@H]1c2ccsc2/C(=N/O)[C@H]1O (stereo not given in full)", "Discrete label": "false"}
{"Molecule": "O=C(NP(=O)(N1CC1)N1CC1)c1cc(I)ccc1I", "Discrete label": "false"}

In the following, a different molecule is considered.
Problem: Recorded call for COc1cc(C2SC(=N)Nc3c2c(C)nn3C(=O)c2ccccc2O)ccc1O (stereo not given) ?
Solution: true

---

- System: NCI-H23
- Assay details: NCI tumour cell line growth inhibition, 48 h
Active and inactive are the calls of the source. No stated cut-off is given here; in the data, active = GI50 up to about 1.1 µM and inactive = higher.
Recorded endpoint: GI50

The cases that follow already have their GI50 on record.
{"Compound": "COc1cc(C2c3cc4c(cc3[C@@H](Oc3ccc(F)cc3)C3COC(=O)[C@H]23)OCO4)cc(OC)c1O (some centres not stated)", "GI50": "0.335 µM (active)"}
{"Compound": "O=c1[nH]c2nc(S)nc(S)c2[nH]1", "GI50": "> 100 µM (inactive)"}
{"Compound": "CC1(O)CC2C(CC1SCCO)C2(C)C (configuration not stated)", "GI50": "> 100 µM (inactive)"}
{"Compound": "c1ccc(OCCSCCCCCCCCCCSCCOc2ccccc2)cc1", "GI50": "> 100 µM (inactive)"}

Problem: Item O=C(O)c1ccccc1CC1Cc2ccc3c(c2C1=O)CCC3 (configuration not stated) has what recorded GI50?
Solution: > 100 µM (inactive)

Problem: Item "COC(=O)C1(OC(=O)Sc2ccccc2)CCN(C)CC1" has what recorded GI50?
Solution: 14.1 µM (inactive)

Problem: Item CCCCCCCCCCCC(=O)C1=C(O)CCC(O)C1=O (configuration not stated) has what recorded GI50?
Solution: 3.48 µM (inactive)

---

- Test system: HT-29
- Assay details: NCI tumour cell line growth inhibition, 48 h
The source made the active and inactive calls. Rule as the data show it: active = GI50 up to about 1.1 µM and inactive = higher.
Choose the fitting class; nothing outside 1 (yes) for active, 0 (no) for inactive is accepted.

// known answers, use as guide
{"Compound": "CC1=CCCC2C(C=O)(C1)CC(C)C2(CO)CC/C(=C/CO)CO (stereo not given)", "Tested system": "HT-29", "Discrete label": "0 (no)"}
{"Compound": "C/C(=C\\Cc1ccc(F)cc1)CCCCCC/C(C)=C/Cc1ccc(F)cc1", "Tested system": "HT-29", "Discrete label": "0 (no)"}
{"Compound": "CC(C)(C)c1ccc(O)c(CN(Cc2cc(C(C)(C)C)ccc2O)C2CCCCC2)c1", "Tested system": "HT-29", "Discrete label": "0 (no)"}
{"Compound": "COc1cc2c(c(OC)c1OC)-c1ccc(SC)c(=O)cc1[C@@H](NC(=O)c1ccc(F)cc1)CC2", "Tested system": "HT-29", "Discrete label": "1 (yes)"}

In the following, a different compound is considered.
Problem: Recorded call for "C[C@@H]1CC(=O)C[C@@H]2CC[C@H]3[C@@H]4CC[C@H](OC(=O)c5cccc6cc7ccccc7nc56)[C@H]4CC[C@@H]3[C@H]21" ?
Solution: 0 (no)
